assay: chemical genetic growth profiling, strain panel (AID 1159580);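 further: tested at 20 µM; growth read once vehicle control cultures reached saturation at 30 °C; 1 = growth at the plate median or of vehicle wells; lower values mean less growth of the strain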; settings: S. cerevisiae deletion strains, growth OD, locus YPR106W, strain ISR1, active compounds read low
About 2,000 (36%) of roughly 5,500 compounds were called active. Not shown: some 18% with an inconclusive outcome. The list shows a part of the results.
READOUT_KIND: normalized growth
I only need the number, thanks.

These recorded examples may help you get a feel for the data.
Qu. Which measured normalized growth value corresponds to Cc1ccc(C(O)(c2ccccc2)c2ccccc2)c2ccccc12 ?
Ans. 0.97

Qu. What does the data say about its normalized growth? Entry: Cc1cc(C(=O)O/N=C(/N)CSc2ncccc2C(F)(F)F)no1
Ans. 0.997

Qu. Quick one: normalized growth for Clc1ccccc1N/N=C\Cc1nnnn1-c1ccccc1 ?
Ans. 0.98

Qu. Entry under review: O=C1Nc2ccccc2/C1=N/N=C\c1cc(Br)cc(Br)c1O . Reported normalized growth?
Ans. 0.943

Qu. Could you share which normalized growth value was measured for CC(C)CSc1nnc(CSCc2nc(-c3ccc(Cl)cc3)cs2)n1C ?
Ans. 0.962

Qu. Given O=C1c2ccccc2O[C@@H](c2ccccc2)[C@@H]1NCc1ccccc1 , state its recorded normalized growth.
Ans. 0.909

Qu. Would you mind telling me what normalized growth value was observed for CC(C)(C)c1csc(NC(=O)Nc2ccc(Cl)cc2)n1 ?
Ans. 0.97

Qu. What normalized growth value was documented for this compound, CN(C(=O)N(C)c1ccc(Cl)cc1C(=O)c1ccccc1Cl)c1ccc(Cl)cc1C(=O)c1ccccc1Cl ?
Ans. 0.868

New cases:
Qu. Which normalized growth is listed for O=C(NCc1cccs1)c1csc(Cc2c(Cl)cccc2Cl)n1 ?
Ans. 0.968

Qu. Consider the compound N/C(CSc1ccc(Cl)cc1)=N/OC(=O)c1ccc(C(F)(F)F)cc1 and give its measured normalized growth.
Ans. 0.875

###

experiment: chemical genetic growth profiling, strain panel (AID 1159580); details: S. cerevisiae deletion strains, growth OD, locus YKR026C, strain gcn3
About 2,000 (36%) of roughly 5,500 compounds were called active. Inconclusive results (about 18%) are left out. Rule as the data show it: active = normalized growth mostly below about 0.91 (no sharp cut-off); inconclusive = no clear call, values can overlap the other calls; inactive = mostly above about 0.92. The list shows a part of the results.
Give your call using only these classes: active, inactive

Qu. Please let me know the test result on file for CCN1CCN(c2cc3c(cc2F)c(=O)c(C(=O)O)cn3C2CC2)CC1 .
Ans. inactive

New cases:
Qu. Recorded test call requested for COc1cc([C@@H]2c3cc4c(cc3[C@H](O)[C@H]3COC(=O)[C@@H]23)OCO4)cc(OC)c1OC
Ans. inactive

Qu. Can you look up the reported call for COc1cccc2c1cc([N+](=O)[O-])c1c(C(=O)O)cc3c(c12)OCO3 for me?
Ans. inactive

Qu. Please share the test call associated with O=C(O)c1cc(=O)c2ccccc2o1 .
Ans. inactive

Qu. Call for entry COc1c2c(cc3c1OCO3)CC[N+](C)=C2 :
Ans. inactive

###

assay: chemical genetic growth profiling, strain panel (AID 1159580); conditions: S. cerevisiae deletion strains, growth OD, locus YGL078C, strain dbp3, active compounds read low
About 2,000 (36%) of roughly 5,500 compounds were called active. Not shown: some 18% with an inconclusive outcome. The list shows a part of the results.
READOUT_KIND: normalized growth
Response field accepts a number only; no unit should be typed.

Use the examples below as a reference point.
Qu. So what's the measured normalized growth for this one? COC(=O)C1=C(C)NC(C)=C(C(=O)OCCN(C)Cc2ccccc2)C1c1cccc([N+](=O)[O-])c1 (centres undefined)
Ans. 0.979

Qu. Reported normalized growth for NS(=O)(=O)c1cc2c(cc1C(F)(F)F)NCNS2(=O)=O : what is it?
Ans. 0.983

Qu. What does the data say about its normalized growth? Entry: CCCCC1C(=O)N(c2ccccc2)N(c2ccccc2)C1=O
Ans. 1.01

Would you kindly look at the next entry?
Qu. For the molecule NCCc1cccc(O)c1 , what normalized growth is on record?
Ans. 0.989

###

Attribute: normalized growth
test: chemical genetic growth profiling, strain panel (AID 1159580); settings: S. cerevisiae deletion strains, growth OD, locus YCL011C, strain gbp2, active compounds read low
Out of some 5,500 compounds screened, about 2,000 (36%) were called active. About 18% were inconclusive and are not listed. Some of the results follow.
Lab note: record the figure alone, no unit after it.

Qu. Given the entry NS(=O)(=O)c1cc2c(cc1C(F)(F)F)NCNS2(=O)=O , report its measured normalized growth.
Ans. 0.991

Qu. Record request: normalized growth value, item C[N+]1(CCCCC[N+]2(C)CCCC2)CCCC1
Ans. 0.993

Qu. # query: normalized growth of entry CN1CCN2c3ccccc3Cc3ccccc3C2C1 (stereo unspecified)
Ans. 1

Next:
Qu. Returns the measured normalized growth for the input molecule. Input: O=c1oc2ccccc2c(O)c1Cc1c(O)c2ccccc2oc1=O
Ans. 1.02

Qu. # lookup: normalized growth of CC(=O)O[C@H]1C[C@@]2(C)[C@H](c3ccoc3)OC(=O)[C@H]3O[C@]32[C@@]2(C)C1[C@]1(C)C(C[C@H]2OC(C)=O)C(C)(C)[C@H](OC(C)=O)C[C@@H]1OC(C)=O (stereo partly specified)
Ans. 0.998

Qu. Which normalized growth value is on record for CN(C)CCC=C1c2ccccc2C=Cc2ccccc21 ?
Ans. 0.984

Qu. Which measured normalized growth value corresponds to O=C(O)c1cc(=O)c2ccccc2o1 ?
Ans. 0.988

Qu. Which normalized growth is listed for CC(=O)O[C@@H]1CC2C(C)(C)[C@H](O)C[C@H](O)[C@]2(C)C2CC[C@@]3(C)[C@H](c4ccoc4)OC(=O)[C@H]4O[C@]43[C@@]21C (stereo partly specified) ?
Ans. 0.984

###

test: chemical genetic growth profiling, strain panel (AID 1159580); details: S. cerevisiae deletion strains, growth OD, locus YNR052C, strain pop2, active compounds read low
About 2,000 (36%) of roughly 5,500 compounds were called active. About 18% were inconclusive and are not listed. The list shows a part of the results.
Catalogue of normalized growth readings, one per entry.

Past entries and their recorded results:
Qu. State the recorded normalized growth for this entry: C=C1C2CC[C@@]3(C)[C@H](c4ccoc4)OC(=O)C[C@]13O[C@H]1CC(=O)C(C)(C)[C@H](C(O)C(=O)OC)[C@@]21C (stereo partly drawn)
Ans. 1.01 (inactive)

Qu. Returns the measured normalized growth for the input compound. Input: CNCCC=C1c2ccccc2CCc2ccccc21
Ans. 1.02 (inactive)

Moving on to the next compound.
Qu. Value lookup for normalized growth; key = CCCCC1C(=O)N(c2ccccc2)N(c2ccccc2)C1=O
Ans. 0.999 (inactive)

###

test: chemical genetic growth profiling, strain panel (AID 1159580);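 further: tested at 20 µM; growth read once vehicle control cultures reached saturation at 30 °C; 1 = growth at the plate median or of vehicle wells; lower values mean less growth of the strain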; conditions: S. cerevisiae deletion strains, growth OD, locus YHR079C, strain IRE1, active compounds read low
Screen size: about 5,500 compounds; about 2,000 (36%) were called active. Not shown: some 18% with an inconclusive outcome. This is one part of the list.
READOUT_KIND: normalized growth
The answer should be written as a number, with no unit following it.

Qu. Item CC(=O)[C@H]1CCC2C3CC=C4C[C@@H](O)CC[C@]4(C)C3CC[C@@]21C (some centres undefined) has what recorded normalized growth?
Ans. 0.988

Qu. Param item = O=C(O)c1cc(=O)c2ccccc2o1 ; retrieve measured normalized growth.
Ans. 1.02

Qu. Any idea what normalized growth was measured for CC(=O)CC(c1ccccc1)c1c(O)c2ccccc2oc1=O (centres undefined) ?
Ans. 0.982

Qu. Record request: normalized growth value, item OC1C(O)C(O)C(O)C(O)C1O (centres undefined)
Ans. 0.973

###

experiment: chemical genetic growth profiling, strain panel (AID 1159580);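 further: tested at 20 µM; growth read once vehicle control cultures reached saturation at 30 °C; 1 = growth at the plate median or of vehicle wells; lower values mean less growth of the strain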; details: S. cerevisiae deletion strains, growth OD, locus YNL233W, strain BNI4, active compounds read low
The whole screen tested about 5,500 compounds, of which about 2,000 (36%) were called active. Not shown: some 18% with an inconclusive outcome. The list shows a part of the results.
READOUT_KIND: normalized growth
API doc: respond with a numeric literal and nothing else, no unit.

Known results for molecules:
Qu. Which measured normalized growth value corresponds to CC1(C)O[C@@H]2CC3C4CCC5=CC(=O)C=C[C@]5(C)[C@@]4(F)[C@@H](O)C[C@]3(C)[C@]2(C(=O)CO)O1 (stereo partly drawn) ?
Ans. 1.01

Qu. Could you tell me which normalized growth is on file for Cc1cc(=O)c2c(O)c3c(cc2o1)OC(C)(C)CC3 ?
Ans. 1.02

# context switch: different molecule, same normalized growth
Qu. If you can, please state the reported normalized growth value of NS(=O)(=O)c1cc2c(cc1C(F)(F)F)NCNS2(=O)=O .
Ans. 1.02

###

assay: chemical genetic growth profiling, strain panel (AID 1159580);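 further: tested at 20 µM; growth read once vehicle control cultures reached saturation at 30 °C; 1 = growth at the plate median or of vehicle wells; lower values mean less growth of the strain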; conditions: S. cerevisiae deletion strains, growth OD, locus YOR290C, strain snf2, active compounds read low
In all, about 5,500 compounds went through this assay and about 2,000 (36%) were called active. About 18% were inconclusive and are not listed. The list shows a part of the results.
Parameter: normalized growth. Scope: all listed entries.
API note: the answer field is a bare number with no unit suffix.

Qu. Name the reported normalized growth value associated with the compound CN1CCOC(c2ccccc2)c2ccccc2C1 (stereo not given)
Ans. 0.966

Continuing:
Qu. # query: normalized growth of entry CCCCCCCCCc1ccc(O)cc1
Ans. 0.0652

Qu. # get_value(readout='normalized growth', item= Nc1nc(N)c2nc(-c3ccccc3)c(N)nc2n1 )
Ans. 0.991

Qu. What measured normalized growth goes with COc1cc([C@@H]2c3cc4c(cc3C(O[C@@H]3O[C@@H]5CO[C@@H](c6cccs6)OC5[C@H](O)[C@H]3O)C3COC(=O)[C@@H]32)OCO4)cc(OC)c1O (stereo not given in full) ?
Ans. 0.982

Qu. Entry under review: CCOC(=O)C1C(C=C(C)C)C1(C)C (stereo not given) . Reported normalized growth?
Ans. 1.01

Qu. Which normalized growth is reported for this compound? OC1C(O)C(O)C(O)C(O)C1O (stereo not given)
Ans. 0.996

Qu. Item Cn1c(=O)c2[nH]c(C3CCCC3)nc2n(C)c1=O has what recorded normalized growth?
Ans. 0.925
